EXPERIMENTAL_SYSTEM: hS1P3 (Homo sapiens)
Construct: expressed in transfected cells; host or cells: HEK293T cells, transient transfection
Sequence (Q99500 whole entry): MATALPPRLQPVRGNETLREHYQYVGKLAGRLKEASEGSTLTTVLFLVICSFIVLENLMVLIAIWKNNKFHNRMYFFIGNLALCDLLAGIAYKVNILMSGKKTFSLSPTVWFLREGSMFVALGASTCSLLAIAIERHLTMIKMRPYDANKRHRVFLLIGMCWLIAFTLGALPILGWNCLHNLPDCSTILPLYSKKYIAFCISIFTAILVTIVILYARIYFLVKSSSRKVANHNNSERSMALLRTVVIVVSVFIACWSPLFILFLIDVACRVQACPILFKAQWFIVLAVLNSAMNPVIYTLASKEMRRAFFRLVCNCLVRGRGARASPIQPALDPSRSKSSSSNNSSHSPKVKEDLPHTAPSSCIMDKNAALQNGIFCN
METHOD_DESCRIPTION: [γ-35S]GTP binding, HEK293T cell membranes with S1P3 receptor
Format: biochemical
MEASUREMENT_CONDITIONS: result in words
MEASUREMENT_LABEL: type of activity at the S1P3 receptor (inverse agonism / agonism)

Illustrative cases are given below, each with its answer.
>>> df
                               smiles_input   experimental_system            result
0  CCCCCCc1cccc(NC(=O)[C@H](N)COP(=O)(O)O)c1  hS1P3 (Homo sapiens)  inverse agonists
1  CCCCCCCCCCc1cccc(NC(=O)[C@H](N)COP(=O)(O)O)c1  hS1P3 (Homo sapiens)           agonism
2  CCCCCCCCc1ccccc1NC(=O)[C@H](N)COP(=O)(O)O  hS1P3 (Homo sapiens)  inverse agonists
3  CCCCCCCCCc1cccc(NC(=O)[C@H](N)COP(=O)(O)O)c1  hS1P3 (Homo sapiens)           agonism

Please look at the following compound next.
Check the records and state type of activity at the S1P3 receptor (inverse agonism / agonism) for `CCCCCCCCc1cccc(NC(=O)[C@H](N)COP(=O)(O)O)c1`
inverse agonists
